The measurements presented in this section are drawn from patent US20250066341A1.

# targetOrTestSystem: human recombinant LPA1 expressed in CHO cells (Homo sapiens, UniProt Q92633)
# Sequence (Q92633 whole entry): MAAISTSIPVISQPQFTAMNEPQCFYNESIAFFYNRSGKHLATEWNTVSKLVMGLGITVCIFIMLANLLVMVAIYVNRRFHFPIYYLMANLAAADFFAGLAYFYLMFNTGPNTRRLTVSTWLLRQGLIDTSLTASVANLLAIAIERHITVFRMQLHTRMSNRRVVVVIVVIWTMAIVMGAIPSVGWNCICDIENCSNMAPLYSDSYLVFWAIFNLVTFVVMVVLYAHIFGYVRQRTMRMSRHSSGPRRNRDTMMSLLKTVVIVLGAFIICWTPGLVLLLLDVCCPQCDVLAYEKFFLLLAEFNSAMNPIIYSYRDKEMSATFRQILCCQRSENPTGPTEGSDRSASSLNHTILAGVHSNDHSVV
# assayExplanation: FLIPR calcium mobilization assay, LPA1 antagonism in CHO-hLPA1 cells
# conditionDetails: inhibition of LPA EC80 Ca2+ response, 30 min pre-incubation, expressed as range of activity
# Source text: The effectiveness of compounds of the present invention as LPA1 antagonist can be determined at the human recombinant LPA1 expressed in CHO cells, using a FLIPR assay in 384 well format. […] The raw data (peak height expressed as relative fluorescence units) are normalized and transformed into “percent of inhibition”. […]
For each entry below, report its IC50 value.

Data request, read-out IC50, for Cc1noc(-c2ccc(OC[C@H]3CCCC[C@@H]3C(=O)O)cn2)c1Nc1cncc(OC(C)C)n1
< 50 nM

Data request, read-out IC50, for Cc1nc(-c2onc(C)c2CNc2nccc(-c3ccco3)n2)ccc1NC(=O)[C@H]1CCCC[C@@H]1C(=O)O
< 50 nM

Data request, read-out IC50, for Cc1nc(-c2onc(C)c2CNC(=O)OCc2ccccc2)ccc1NC(=O)[C@H]1CCCC[C@@H]1C(=O)O
50 to 250 nM

Data request, read-out IC50, for Cc1nc(-c2onc(C)c2NS(=O)(=O)CCc2ccc(F)cc2)ccc1NC(=O)[C@H]1CCCC[C@@H]1C(=O)O
50 to 250 nM

Data request, read-out IC50, for CCCN(C)C(=O)OCc1c(C)noc1-c1ccc(OC[C@H]2CCCC[C@@H]2C(=O)O)c(C)n1
< 50 nM

Data request, read-out IC50, for Cc1nc(-c2onc(C)c2Nc2cncc(C3CCCC3)n2)ccc1OC[C@H]1CCCC[C@@H]1C(=O)O
< 50 nM

Data request, read-out IC50, for Cc1nc(-c2onc(C)c2Nc2cncc(C3CCCC3)n2)ccc1NC(=O)[C@H]1CCCC[C@@H]1C(=O)O
< 50 nM

Data request, read-out IC50, for Cc1nc(-c2onc(C)c2NS(=O)(=O)CCc2ccc(Cl)cc2)ccc1NC(=O)[C@H]1CCCC[C@@H]1C(=O)O
< 50 nM

Data request, read-out IC50, for Cc1nc(-c2onc(C)c2Nc2cncc(C3=CCCCC3)n2)ccc1NC(=O)[C@H]1CCCC[C@@H]1C(=O)O
< 50 nM

Data request, read-out IC50, for Cc1noc(-c2ccc(OC[C@H]3CCCC[C@@H]3C(=O)O)cn2)c1Nc1cncc(OCC(F)(F)F)n1
< 50 nM

Data request, read-out IC50, for Cc1nc(-c2onc(C)c2NS(=O)(=O)CCc2ccccc2F)ccc1NC(=O)[C@H]1CCCC[C@@H]1C(=O)O
50 to 250 nM

Data request, read-out IC50, for Cc1nc(-c2nnn(C)c2CNC(=O)OCc2ccccc2)ccc1OC[C@H]1CCCC[C@@H]1C(=O)O
< 50 nM

Data request, read-out IC50, for Cc1nc(-c2onc(C)c2CNC(=O)O[C@H](C)c2ccccc2)ccc1NC(=O)[C@H]1CCCC[C@@H]1C(=O)O
250 to 600 nM

Data request, read-out IC50, for Cc1nc(-c2onc(C)c2CNc2nccc(-c3cccs3)n2)ccc1NC(=O)[C@H]1CCCC[C@@H]1C(=O)O
< 50 nM

Data request, read-out IC50, for Cc1nc(-c2onc(C)c2Nc2cncc(NC3CCCC3)n2)ccc1NC(=O)[C@H]1CCCC[C@@H]1C(=O)O
50 to 250 nM

Data request, read-out IC50, for Cc1nc(-c2onc(C)c2Nc2cncc(OC(C)C)n2)ccc1OC[C@H]1CCCC[C@@H]1C(=O)O
< 50 nM

Data request, read-out IC50, for Cc1nc(-c2onc(C)c2Nc2cncc(-c3ccccc3)n2)ccc1NC(=O)[C@H]1CCCC[C@@H]1C(=O)O
< 50 nM

Data request, read-out IC50, for Cc1nc(-c2onc(C)c2Nc2cncc(-c3ccncc3)n2)ccc1NC(=O)[C@H]1CCCC[C@@H]1C(=O)O
50 to 250 nM

Data request, read-out IC50, for Cc1nc(-c2nnn(C)c2CNc2cncc(OC(C)C)n2)ccc1OC[C@H]1CCCC[C@@H]1C(=O)O
50 to 250 nM

Data request, read-out IC50, for CC(C)Oc1cncc(Nc2c(-c3ccc(NC(=O)[C@H]4CCCC[C@@H]4C(=O)O)cc3)cnn2C)n1
50 to 250 nM

Data request, read-out IC50, for Cc1nc(-c2onc(C)c2NS(=O)(=O)CCOc2ccc(F)cc2)ccc1OC[C@H]1CCCC[C@@H]1C(=O)O
< 50 nM

Data request, read-out IC50, for Cc1nc(-c2onc(C)c2NS(=O)(=O)CCOc2ccc(F)cc2)ccc1NC(=O)[C@H]1CCCC[C@@H]1C(=O)O
50 to 250 nM

Data request, read-out IC50, for CCCc1cncc(Nc2c(C)noc2-c2ccc(OC[C@H]3CCCC[C@@H]3C(=O)O)c(C)n2)n1
< 50 nM

Data request, read-out IC50, for Cc1nc(-c2cnn(C)c2CNc2nccc(OC(C)C)n2)ccc1NC(=O)[C@H]1CCCC[C@@H]1C(=O)O
50 to 250 nM

Data request, read-out IC50, for Cc1nc(-c2cnn(C)c2NC(=O)O[C@H](C)c2ccccc2Cl)ccc1OC[C@H]1CCCC[C@@H]1C(=O)O
< 50 nM

Data request, read-out IC50, for Cc1nc(-c2onc(C)c2NS(=O)(=O)CC(C)c2ccccc2)ccc1NC(=O)[C@H]1CCCC[C@@H]1C(=O)O (single isomer, unassigned) [Compound 30]
< 50 nM

Data request, read-out IC50, for CCOc1ccnc(NCc2c(C)noc2-c2ccc(NC(=O)[C@H]3CCCC[C@@H]3C(=O)O)c(C)n2)n1
50 to 250 nM

Data request, read-out IC50, for Cc1nc(-c2nnn(C)c2NC(=O)O[C@H](C)c2ccccc2Cl)ccc1OC[C@H]1CCCC[C@@H]1C(=O)O
< 50 nM

---

For each entry below, report its pIC50 value.
# targetOrTestSystem: human recombinant LPA1 expressed in CHO cells (Homo sapiens)
# assayExplanation: FLIPR calcium mobilization assay, LPA1 antagonism in CHO-hLPA1 cells
# conditionDetails: inhibition of LPA EC80 Ca2+ response, 30 min pre-incubation, expressed as range of activity
# Excerpt: The effectiveness of compounds of the present invention as LPA1 antagonist can be determined at the human recombinant LPA1 expressed in CHO cells, using a FLIPR assay in 384 well format. […] The raw data (peak height expressed as relative fluorescence units) are normalized and transformed into “percent of inhibition”. […]
pIC50: −log10 of the molar value.

Lookup: pIC50 / human recombinant LPA1 expressed in CHO cells (Homo sapiens) / Cc1nc(-c2onc(C)c2CNc2nccc(-c3ccsc3)n2)ccc1NC(=O)[C@H]1CCCC[C@@H]1C(=O)O [Compound 39]
> 7.30

Lookup: pIC50 / human recombinant LPA1 expressed in CHO cells (Homo sapiens) / CCOc1cncc(Nc2c(-c3ccc(OC[C@H]4CCCC[C@@H]4C(=O)O)c(C)n3)nnn2C)n1 [Compound 72]
6.60 to 7.30

Lookup: pIC50 / human recombinant LPA1 expressed in CHO cells (Homo sapiens) / Cc1nc(-c2cnn(C)c2CNc2nccc(-c3ccccc3)n2)ccc1OC[C@H]1CCCC[C@@H]1C(=O)O [Compound 61]
> 7.30

Lookup: pIC50 / human recombinant LPA1 expressed in CHO cells (Homo sapiens) / Cc1nc(-c2cnn(C)c2CNc2nccc(-c3ccccc3)n2)ccc1NC(=O)[C@H]1CCCC[C@@H]1C(=O)O [Compound 19]
> 7.30

Lookup: pIC50 / human recombinant LPA1 expressed in CHO cells (Homo sapiens) / Cc1nc(-c2nnn(C)c2CNc2nccc(-c3cnccn3)n2)ccc1OC[C@H]1CCCC[C@@H]1C(=O)O [Compound 65]
> 7.30

Lookup: pIC50 / human recombinant LPA1 expressed in CHO cells (Homo sapiens) / Cc1nc(-c2nnn(C)c2CNc2nccc(OC(C)C)n2)ccc1OC[C@H]1CCCC[C@@H]1C(=O)O [Compound 66]
> 7.30

Lookup: pIC50 / human recombinant LPA1 expressed in CHO cells (Homo sapiens) / Cc1nc(-c2cnn(C)c2COC(=O)N(C)CCC(C)C)ccc1NC(=O)[C@H]1CCCC[C@@H]1C(=O)O [Compound 21]
6.22 to 6.60

Lookup: pIC50 / human recombinant LPA1 expressed in CHO cells (Homo sapiens) / Cc1nc(-c2onc(C)c2NS(=O)(=O)CCc2ccccc2)ccc1NC(=O)[C@H]1CCCC[C@@H]1C(=O)O [Compound 23]
6.60 to 7.30

Lookup: pIC50 / human recombinant LPA1 expressed in CHO cells (Homo sapiens) / Cc1nc(-c2nnn(C)c2Nc2cncc(OC(C)C)n2)ccc1OC[C@H]1CCCC[C@@H]1C(=O)O [Compound 71]
> 7.30

Lookup: pIC50 / human recombinant LPA1 expressed in CHO cells (Homo sapiens) / Cc1nc(-c2onc(C)c2COC(=O)N(C)C2CCCC2)ccc1OC[C@H]1CCCC[C@@H]1C(=O)O [Compound 74]
> 7.30

Lookup: pIC50 / human recombinant LPA1 expressed in CHO cells (Homo sapiens) / Cc1nc(-c2onc(C)c2NC(=O)O[C@H](C)c2ccccc2Cl)ccc1OC[C@H]1CCCC[C@@H]1C(=O)O [Compound 80]
> 7.30

Lookup: pIC50 / human recombinant LPA1 expressed in CHO cells (Homo sapiens) / Cc1nc(-c2nnn(C)c2CNC(=O)O[C@H](C)c2cccnc2Cl)ccc1OC[C@H]1CCCC[C@@H]1C(=O)O [Compound 63]
> 7.30

Lookup: pIC50 / human recombinant LPA1 expressed in CHO cells (Homo sapiens) / Cc1nc(-c2onc(C)c2COC(=O)N(C)C2CCCC2)ccc1NC(=O)[C@H]1CCCC[C@@H]1C(=O)O [Compound 45]
6.60 to 7.30

Lookup: pIC50 / human recombinant LPA1 expressed in CHO cells (Homo sapiens) / Cc1nc(-c2nnn(C)c2CNC(=O)OCc2cccnc2Cl)ccc1OC[C@H]1CCCC[C@@H]1C(=O)O [Compound 64]
6.60 to 7.30

Lookup: pIC50 / human recombinant LPA1 expressed in CHO cells (Homo sapiens) / Cc1nc(-c2nnn(C)c2CNc2nccc(C3CCCCC3)n2)ccc1NC(=O)[C@H]1CCCC[C@@H]1C(=O)O [Compound 44]
> 7.30
